experiment: Example 2.1 rhamnolipid precipitation, filtration, centrifugation: magnesium; conditions: magnesium concentration after treatment; molar ratio 2 to 1
Decision: Treatment 3: Rhamnolipid and Centrifugation Cc beneath 0.3 mmol/L gives 1 (yes); Treatment 3: Rhamnolipid and Centrifugation Cc meeting or exceeding 0.3 mmol/L gives 0 (no).

Compound	Classification
CCCC(CC(=O)O)OC1O[C@@H](C)[C@H](O)[C@@H](O)[C@H]1O (some centres unmarked) [Rha C6]	1 (yes)
CCCCCCCC(CC(=O)O)OC1O[C@@H](C)[C@H](O)[C@@H](O)[C@H]1O (some centres unmarked) [Rha C10]	0 (no)
CCCCCCCCCC(CC(=O)O)OC(=O)CC(CCCCCCCCC)OC1O[C@@H](C)[C@H](O)[C@@H](O)[C@H]1O (some centres unmarked) [Rha C12C12]	1 (yes)
CCCCCCCCCCCCCCCC(CC(=O)O)OC1O[C@@H](C)[C@H](O)[C@@H](O)[C@H]1O (some centres unmarked) [Rha C18]	1 (yes)

###

assay: Example 2.1 rhamnolipid precipitation, filtration, centrifugation: lead; conditions: lead concentration after treatment; molar ratio 5 to 1
Readout Type: Treatment 2: Rhamnolipid and Filtration Cf

Compound	Result
CCCCCCCC(CC(=O)O)OC1O[C@@H](C)[C@H](O)[C@@H](O)[C@H]1O (some centres unmarked)	0.028 ± 0.031 mmol/L
CCCCCCCCCC(CC(=O)O)OC(=O)CC(CCCCCCCCC)OC1O[C@@H](C)[C@H](O)[C@@H](O)[C@H]1O (some centres unmarked)	0.049 ± 0.021 mmol/L
CCCCCCCCCCCC(CC(=O)O)OC1O[C@@H](C)[C@H](O)[C@@H](O)[C@H]1O (some centres unmarked)	0.000 ± 0.000 mmol/L
CCCCCCCCCCCCCCCC(CC(=O)O)OC1O[C@@H](C)[C@H](O)[C@@H](O)[C@H]1O (some centres unmarked)	0.000 ± 0.002 mmol/L
CCCC(CC(=O)O)OC1O[C@@H](C)[C@H](O)[C@@H](O)[C@H]1O (some centres unmarked)	0.046 ± 0.017 mmol/L
